Experiment: FIG. 10
Structures can show the parent of a compound that is named as a salt. Peptide text beside a SMILES is read from it. * marks the point of attachment. For = O=C*
reported_endpoint: After 2 weeks @ 40°C | HPLC purity (area%)

compound	result
CSCC[C@H](NC=O)C(=O)N[C@@H](CC(=O)O)C(=O)NCC(=O)N[C@@H](CS)C(=O)N[C@@H](CCC(=O)O)C(=O)N[C@@H](CC(C)C)C(=O)O [Na Tri salt] (For-MDGCEL-OH)	68,15 area%
CSCC[C@H](NC=O)C(=O)N[C@@H](CC(=O)O)C(=O)NCC(=O)N[C@@H](CS)C(=O)N[C@@H](CCC(=O)O)C(=O)N[C@@H](CC(C)C)C(=O)O [NH3 Tri salt] (For-MDGCEL-OH)	88,64 area%
CSCC[C@H](NC=O)C(=O)N[C@@H](CC(=O)O)C(=O)NCC(=O)N[C@@H](CS)C(=O)N[C@@H](CCC(=O)O)C(=O)N[C@@H](CC(C)C)C(=O)O [LYS Tri salt] (For-MDGCEL-OH)	92,29 area%
CSCC[C@H](NC=O)C(=O)N[C@@H](CC(=O)O)C(=O)NCC(=O)N[C@@H](CS)C(=O)N[C@@H](CCC(=O)O)C(=O)N[C@@H](CC(C)C)C(=O)O [DEA Tri salt] (For-MDGCEL-OH)	82,51 area%

---

Assay: Solubility / lyophilization concentration of Foxy-5 drug substance (background statements)
Assay type: physicochemical
Conditions: water; read-out: product concentration for the final lyophilization, limited by solubility of salt free drug substance in water
Peptide text beside a SMILES is read from it. * marks the point of attachment. For = O=C*

molecule | solubility [µg/mL]
CSCC[C@H](NC=O)C(=O)N[C@@H](CC(=O)O)C(=O)NCC(=O)N[C@@H](CS)C(=O)N[C@@H](CCC(=O)O)C(=O)N[C@@H](CC(C)C)C(=O)O [Foxy-5, For-Met-Asp-Gly-Cys-Glu-Leu-OH] (For-MDGCEL-OH) | 3000

---

Assay: FIG. 10
Where a name gives a salt, the structure may show the parent alone. Peptide text beside a SMILES is read from it. * marks the point of attachment. For = O=C*
Catalogue of After 2 weeks @ 40°C | HPLC purity (area%) values
reported_endpoint: After 2 weeks @ 40°C | HPLC purity (area%)

compound	result
CSCC[C@H](NC=O)C(=O)N[C@@H](CC(=O)O)C(=O)NCC(=O)N[C@@H](CS)C(=O)N[C@@H](CCC(=O)O)C(=O)N[C@@H](CC(C)C)C(=O)O [DEA Di salt] (For-MDGCEL-OH)	92,88 area%
CSCC[C@H](NC=O)C(=O)N[C@@H](CC(=O)O)C(=O)NCC(=O)N[C@@H](CS)C(=O)N[C@@H](CCC(=O)O)C(=O)N[C@@H](CC(C)C)C(=O)O [NH3 Di salt] (For-MDGCEL-OH)	92,27 area%
CSCC[C@H](NC=O)C(=O)N[C@@H](CC(=O)O)C(=O)NCC(=O)N[C@@H](CS)C(=O)N[C@@H](CCC(=O)O)C(=O)N[C@@H](CC(C)C)C(=O)O [HIS Tri salt] (For-MDGCEL-OH)	96,41 area%
CSCC[C@H](NC=O)C(=O)N[C@@H](CC(=O)O)C(=O)NCC(=O)N[C@@H](CS)C(=O)N[C@@H](CCC(=O)O)C(=O)N[C@@H](CC(C)C)C(=O)O [NMG Di salt] (For-MDGCEL-OH)	93,22 area%
CSCC[C@H](NC=O)C(=O)N[C@@H](CC(=O)O)C(=O)NCC(=O)N[C@@H](CS)C(=O)N[C@@H](CCC(=O)O)C(=O)N[C@@H](CC(C)C)C(=O)O [TRO Di salt] (For-MDGCEL-OH)	96,51 area%

---

Catalogue of After 2 weeks @ 40°C | Aspartimide (area%) values
Assay: FIG. 10
Structures can show the parent of a compound that is named as a salt. Peptide text beside a SMILES is read from it. * marks the point of attachment. For = O=C*
reported_endpoint: After 2 weeks @ 40°C | Aspartimide (area%)

molecule	result
CSCC[C@H](NC=O)C(=O)N[C@@H](CC(=O)O)C(=O)NCC(=O)N[C@@H](CS)C(=O)N[C@@H](CCC(=O)O)C(=O)N[C@@H](CC(C)C)C(=O)O [LYS Tri salt] (For-MDGCEL-OH)	1,10 area%
CSCC[C@H](NC=O)C(=O)N[C@@H](CC(=O)O)C(=O)NCC(=O)N[C@@H](CS)C(=O)N[C@@H](CCC(=O)O)C(=O)N[C@@H](CC(C)C)C(=O)O [Foxy-5 free acid] (For-MDGCEL-OH)	0,75 area%
CSCC[C@H](NC=O)C(=O)N[C@@H](CC(=O)O)C(=O)NCC(=O)N[C@@H](CS)C(=O)N[C@@H](CCC(=O)O)C(=O)N[C@@H](CC(C)C)C(=O)O [Na Tri salt] (For-MDGCEL-OH)	0,53 area%
CSCC[C@H](NC=O)C(=O)N[C@@H](CC(=O)O)C(=O)NCC(=O)N[C@@H](CS)C(=O)N[C@@H](CCC(=O)O)C(=O)N[C@@H](CC(C)C)C(=O)O [HIS Di salt] (For-MDGCEL-OH)	1,97 area%
CSCC[C@H](NC=O)C(=O)N[C@@H](CC(=O)O)C(=O)NCC(=O)N[C@@H](CS)C(=O)N[C@@H](CCC(=O)O)C(=O)N[C@@H](CC(C)C)C(=O)O [TRO Tri salt] (For-MDGCEL-OH)	8,24 area%

---

Test: FIG. 10
Where a name gives a salt, the structure may show the parent alone. Peptide text beside a SMILES is read from it. * marks the point of attachment. For = O=C*
Catalogue of After 4 weeks @ 40°C | Aspartimide (area%) values
reported_endpoint: After 4 weeks @ 40°C | Aspartimide (area%)

molecule	result
CSCC[C@H](NC=O)C(=O)N[C@@H](CC(=O)O)C(=O)NCC(=O)N[C@@H](CS)C(=O)N[C@@H](CCC(=O)O)C(=O)N[C@@H](CC(C)C)C(=O)O [HIS Tri salt] (For-MDGCEL-OH)	2,43 area%
CSCC[C@H](NC=O)C(=O)N[C@@H](CC(=O)O)C(=O)NCC(=O)N[C@@H](CS)C(=O)N[C@@H](CCC(=O)O)C(=O)N[C@@H](CC(C)C)C(=O)O [NMG Tri salt] (For-MDGCEL-OH)	3,06 area%
CSCC[C@H](NC=O)C(=O)N[C@@H](CC(=O)O)C(=O)NCC(=O)N[C@@H](CS)C(=O)N[C@@H](CCC(=O)O)C(=O)N[C@@H](CC(C)C)C(=O)O [NMG Di salt] (For-MDGCEL-OH)	6,17 area%

---

Catalogue of After 4 weeks @ 40°C | Aspartimide (area%) values
Test: FIG. 10
Where a name gives a salt, the structure may show the parent alone. Peptide text beside a SMILES is read from it. * marks the point of attachment. For = O=C*
reported_endpoint: After 4 weeks @ 40°C | Aspartimide (area%)

molecule	result
CSCC[C@H](NC=O)C(=O)N[C@@H](CC(=O)O)C(=O)NCC(=O)N[C@@H](CS)C(=O)N[C@@H](CCC(=O)O)C(=O)N[C@@H](CC(C)C)C(=O)O [TRO Di salt] (For-MDGCEL-OH)	4,20 area%
CSCC[C@H](NC=O)C(=O)N[C@@H](CC(=O)O)C(=O)NCC(=O)N[C@@H](CS)C(=O)N[C@@H](CCC(=O)O)C(=O)N[C@@H](CC(C)C)C(=O)O [DEA Di salt] (For-MDGCEL-OH)	7,50 area%
CSCC[C@H](NC=O)C(=O)N[C@@H](CC(=O)O)C(=O)NCC(=O)N[C@@H](CS)C(=O)N[C@@H](CCC(=O)O)C(=O)N[C@@H](CC(C)C)C(=O)O [HIS Di salt] (For-MDGCEL-OH)	2,40 area%
CSCC[C@H](NC=O)C(=O)N[C@@H](CC(=O)O)C(=O)NCC(=O)N[C@@H](CS)C(=O)N[C@@H](CCC(=O)O)C(=O)N[C@@H](CC(C)C)C(=O)O [DEA Tri salt] (For-MDGCEL-OH)	7,20 area%
CSCC[C@H](NC=O)C(=O)N[C@@H](CC(=O)O)C(=O)NCC(=O)N[C@@H](CS)C(=O)N[C@@H](CCC(=O)O)C(=O)N[C@@H](CC(C)C)C(=O)O [LYS Tri salt] (For-MDGCEL-OH)	1,26 area%
CSCC[C@H](NC=O)C(=O)N[C@@H](CC(=O)O)C(=O)NCC(=O)N[C@@H](CS)C(=O)N[C@@H](CCC(=O)O)C(=O)N[C@@H](CC(C)C)C(=O)O [LYS Di salt] (For-MDGCEL-OH)	2,80 area%
